Provenance of the data: PubChem BioAssay (NCI)

# Tested on: A498 renal
# Experiment: NCI-60 one-dose screen, 48 h (100 = growth as untreated, 0 = no growth, -100 = all killed)
# Settings: 10 µM unless noted
Compounds without any hit were thinned out: in the full panel of roughly 83,000, 20% have a hit. Active and inactive are the calls of the source. Rule for the calls: active = growth percent below 10; inactive = the rest.
Readout Label: growth

# count of solved cases: 2
C=CCN1C(=O)c2ccccc2C1=O :: 92% (inactive)
Cc1nc(Nc2ccc(Cl)cc2)c2cnn(-c3ccccc3)c2n1 :: 83.5% (inactive)

// query growth value for entry N#Cc1c(N)nc2c(c(-c3ccc(Cl)cc3)nn2-c2ccccc2)c1C#N
113% [100 µM] (inactive)

// query growth value for entry Cc1cc2ccccc2c2cc3ccccc3cc12
88.5% (inactive)

// query growth value for entry Cc1cc(-c2ccc(N=Nc3c(C)nn(-c4ccc(S(=O)(=O)O)cc4)c3O)c(C)c2)ccc1N=Nc1ccc(O)c(C(=O)O)c1
120% (inactive)

###

# Tested on: UACC-257 melanoma
# Experiment: NCI-60 one-dose screen, 48 h
# Settings: 10 µM unless noted
Compounds without any hit were thinned out: in the full panel of roughly 83,000, 20% have a hit. The source made the active and inactive calls. The calls were made as follows: active = growth percent below 10; inactive = the rest.
// classify into True = active, False = inactive

Below are worked cases with known answers.
O=C1c2ccccc2CN1c1ccccc1 :: False
OC1CCCN(Cc2ccccc2)C1 (stereo not drawn) :: False

So what was the verdict on N#Cc1c(N)nc2c(c(-c3ccc(Cl)cc3)nn2-c2ccccc2)c1C#N in this test?
False

So what was the verdict on O=C1C2=C(Nc3cc(Cl)ccc3N2)OC1c1c[nH]c2ccc(COc3ccccc3)cc12 (stereo not drawn) in this test?
False

So what was the verdict on C/C=C/C(=O)OCCCCCCCCCCCC in this test?
False

So what was the verdict on COc1ccc2oc3c(ccc[n+]3C)c(=O)c2c1 in this test?
False

###

# Test system: NCI-H522 lung
# Experiment: NCI-60 one-dose screen, 48 h
# Settings: 10 µM unless noted
About 83,000 compounds went through this panel and 20% of them were active in at least one assay; those are over-represented in the sample as a whole. The source made the active and inactive calls. The calls were made as follows: active = growth percent below 10; inactive = the rest.
// classify into TRUE for active, FALSE for inactive

Below are worked cases with known answers.
CCN(C)c1ccccc1 :: FALSE
CC(C)(C)OC(=O)CC1(O)CCCCC1 :: FALSE
OC1CCCN(Cc2ccccc2)C1 (stereo not drawn) :: FALSE

So what was the verdict on Oc1ccc(O)c(-c2ccccc2)c1 in this test?
TRUE

So what was the verdict on CC(C)(C)OC(=O)c1ccc(NCc2cc(O)ccc2O)cc1 in this test?
TRUE

###

# Tested on: SW-620 colon
# Experiment: NCI-60 one-dose screen, 48 h (100 = growth as untreated, 0 = no growth, -100 = all killed)
# Settings: 10 µM unless noted
This is part of a sample that, as a whole, favours compounds with a hit. Of some 83,000 tested, about 20% had one in any assay.
Readout Label: growth (%)
Report the value in % with no unit label.

CC1CCC(=O)N1c1ccc(N)cc1 (configuration not stated) :: 114

// query growth value for entry CCOC(C)=N
107

// query growth value for entry CCCC(=O)Oc1ccc(CC)cc1
111

// query growth value for entry Cn1c(-c2ccccc2)cc(=O)cc1-c1ccccc1
51.7

// query growth value for entry CCOC(=O)CN1CCC(C(=O)OCC)CC1
108

// query growth value for entry O=C1c2ccccc2CN1c1ccccc1
105

// query growth value for entry O=P(O)(O)OC1C(OP(=O)(O)O)C(OP(=O)(O)O)C(OP(=O)(O)O)C(OP(=O)(O)O)C1OP(=O)(O)O.[Cu+2] (configuration not stated)
95.6
